Where these numbers come from: patent US8372832B2

SYSTEM_NAME: α7-subtype of nicotinic receptors (Rattus norvegicus, UniProt Q05941)
Sequence (Q05941 23-502): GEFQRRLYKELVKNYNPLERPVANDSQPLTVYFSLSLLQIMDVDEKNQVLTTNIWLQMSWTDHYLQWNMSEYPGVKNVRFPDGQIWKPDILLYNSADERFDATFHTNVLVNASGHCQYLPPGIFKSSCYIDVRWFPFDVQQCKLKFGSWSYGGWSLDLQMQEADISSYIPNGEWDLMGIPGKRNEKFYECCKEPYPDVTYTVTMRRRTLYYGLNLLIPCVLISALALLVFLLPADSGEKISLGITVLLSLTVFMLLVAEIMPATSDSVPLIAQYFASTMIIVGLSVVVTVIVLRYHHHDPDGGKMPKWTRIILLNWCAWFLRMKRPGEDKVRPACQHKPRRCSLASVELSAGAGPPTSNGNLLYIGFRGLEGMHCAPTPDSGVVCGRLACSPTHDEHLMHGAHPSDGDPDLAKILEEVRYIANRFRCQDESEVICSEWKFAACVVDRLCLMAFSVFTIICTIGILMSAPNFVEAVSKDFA
PARAMETER_MEASURED: IC50

IC50 for α7-subtype of nicotinic receptors (Rattus norvegicus, UniProt Q05941) with input "Brc1ccc(-c2nnc(N3CCN4CCC3CC4)o2)o1" equals < 10 nM
